Target: T1, human TREM2 (human, UniProt Q9NZC2 19-174, limits assumed)
T1 construct: also called triggering receptor expressed on myeloid cells 2
T1 sequence: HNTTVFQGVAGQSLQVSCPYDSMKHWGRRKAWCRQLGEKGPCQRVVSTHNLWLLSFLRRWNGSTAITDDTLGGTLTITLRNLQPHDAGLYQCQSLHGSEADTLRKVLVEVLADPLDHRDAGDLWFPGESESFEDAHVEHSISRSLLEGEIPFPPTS
Assay: 2nd screen 2 nM
assayReadout: Binding Signal (fold over 6E7 Parental antibody) (fold)
# unit: fold | format: bare number

Sample answers from the record:
Q) Suppose we examine the binder V89 (antibody, V domains shown) VH: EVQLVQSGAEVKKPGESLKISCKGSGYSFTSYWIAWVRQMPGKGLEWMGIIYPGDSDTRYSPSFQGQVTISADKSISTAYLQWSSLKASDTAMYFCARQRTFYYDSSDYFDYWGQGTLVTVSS VL: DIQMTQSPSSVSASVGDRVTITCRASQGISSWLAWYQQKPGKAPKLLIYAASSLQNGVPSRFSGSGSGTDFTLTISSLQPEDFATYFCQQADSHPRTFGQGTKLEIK ; what Binding Signal (fold over 6E7 Parental antibody) value has been reported?
A) 0.94

Q) Note, next up: V17 (antibody, V domains shown) VH: EVQLVQSGAEVKKPGESLKISCKGSGYSFGSYWIAWVRQMPGKGLEWMGIIYPGDSDTRYSPSFQGQVTISADKSISTAYLQWSSLKASDTAMYFCARSRTFYYDSSDYFDYWGQGTLVTVSS VL: DIQMTQSPSSVSASVGDRVTITCRASQGISSWLAWYQQKPGKAPKLLIYAASSRQNGVPSRFSGSGSGTDFTLTISSLQPEDFATYFCQQADSSPRTFGQGTKLEIK
A) 4.22

Proceeding to the next binder to report its Binding Signal (fold over 6E7 Parental antibody).
Q) Suppose we examine the binder V2 (antibody, V domains shown) VH: EVQLVQSGAEVKKPGESLKISCKGSGSSFTSYWIAWVRQMPGKGLEWMGIIYPGDGDTRYSPSFQGQVTISADKSISTAYLQWSSLKASDTAMYFCARSRTFYYDSSDYFDYWGQGTLVTVSS VL: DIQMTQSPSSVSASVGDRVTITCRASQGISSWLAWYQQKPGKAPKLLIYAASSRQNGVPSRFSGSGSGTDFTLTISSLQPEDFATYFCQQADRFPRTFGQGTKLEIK ; what Binding Signal (fold over 6E7 Parental antibody) value has been reported?
A) 2.23

Data provenance is patent US20250282866A1.
